target: MspA-PBA (phenylboronic acid modified hetero-octameric (N90C)1(M2)7 MspA) (Mycolicibacterium smegmatis, UniProt A0QR29, D117C/D118N/D120N/D145R/D161R/E166K); construct: H6 (hexa-histidine) (C); 3-(maleimide) phenylboronic acid (MPBA) adduct on the thiol of Cys90; made in house; host or cells: E. coli BL21 (DE3) pLysS, co-expression from pETDuet-1; assay type: binding, Mycobacterium smegmatis; settings: NMP 400 μM in cis, +200 mV, three independent measurements
This listing pairs compounds with measured 1/τoff.
QUANTITY_KIND: 1/τoff (s⁻¹)

{"columns": ["COMPOUND", "QUANTITY_KIND", "UNIT_SYMBOL", "READOUT_NUMBER"],
 "data": [
  ["Nc1ncnc2c1ncn2[C@@H]1O[C@H](COP(=O)(O)O)[C@@H](O)[C@H]1O [AMP, adenosine-5′-monophosphate]", "1/τoff", "s⁻¹", 14.6],
  ["Nc1ccn([C@@H]2O[C@H](COP(=O)(O)O)[C@@H](O)[C@H]2O)c(=O)n1 [CMP, Cytidine-5′-monophosphate]", "1/τoff", "s⁻¹", 20.5],
  ["Nc1nc2c(ncn2[C@@H]2O[C@H](COP(=O)(O)O)[C@@H](O)[C@H]2O)c(=O)[nH]1 [GMP, guanosine-5′-monophosphate]", "1/τoff", "s⁻¹", 10.2],
  ["O=c1ccn([C@@H]2O[C@H](COP(=O)(O)O)[C@@H](O)[C@H]2O)c(=O)[nH]1 [UMP, uridine-5′-monophosphate]", "1/τoff", "s⁻¹", 8.2]
]}

---

Quick list: 1/τon per entry.
biological target: MspA-PBA (boronic acid appended hetero-octameric MspA) (Mycolicibacterium smegmatis, UniProt A0QR29, D117C/D118N/D120N/D145R/D161R/E166K); construct: H6 (hexa-histidine) (C); 3-(maleimide) phenylboronic acid (MPBA) adduct on the thiol of Cys90; made in house; host or cells: E. coli BL21 (DE3) pLysS, co-expression from pETDuet-1; assay: Single channel recording of alditol binding to MspA-PBA nanopore (standards and zero-sugar drinks); design: species or system Mycobacterium smegmatis; details: voltage series: +120 mV, glycerol 12 mM, other alditols 8 mM, N=3
Sequence (A0QR29 other isoform, or with tags, fused parts or gaps D117N/D118N/D120N/D145R/D161R/E166K): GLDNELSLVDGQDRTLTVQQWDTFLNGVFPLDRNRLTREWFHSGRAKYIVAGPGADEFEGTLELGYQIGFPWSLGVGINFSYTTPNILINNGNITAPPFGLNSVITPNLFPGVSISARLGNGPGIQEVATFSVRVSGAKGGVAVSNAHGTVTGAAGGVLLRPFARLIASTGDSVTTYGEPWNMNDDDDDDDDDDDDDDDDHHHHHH
Sequence (A0QR29 other isoform, or with tags, fused parts or gaps D117C/D118N/D120N/D145R/D161R/E166K): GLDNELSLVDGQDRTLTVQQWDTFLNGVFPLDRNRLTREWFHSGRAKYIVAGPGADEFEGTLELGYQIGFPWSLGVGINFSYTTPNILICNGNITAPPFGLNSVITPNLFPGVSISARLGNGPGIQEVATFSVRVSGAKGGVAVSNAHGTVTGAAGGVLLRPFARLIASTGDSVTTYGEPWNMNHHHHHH
QUANTITY_KIND: 1/τon (s⁻¹)

{"columns": ["CHEM_SMILES", "READOUT_NUMBER"],
 "data": [
  ["OCC(O)CO", 2.4],
  ["OC[C@@H](O)[C@H](O)[C@@H](O)CO", 1.68],
  ["OC[C@@H](O)[C@@H](O)CO", 1.65],
  ["OC[C@@H](O)[C@@H](O)[C@H](O)[C@@H](O)CO", 1.70]
]}

---

biological target: MspA-PBA (phenylboronic acid modified hetero-octameric (N90C)1(M2)7 MspA) (Mycolicibacterium smegmatis, UniProt A0QR29, D117C/D118N/D120N/D145R/D161R/E166K); construct: H6 (hexa-histidine) (C); 3-(maleimide) phenylboronic acid (MPBA) adduct on the thiol of Cys90; made in house; host or cells: E. coli BL21 (DE3) pLysS, co-expression from pETDuet-1; format: binding, Mycobacterium smegmatis; conditions: NMP 500 μM in cis, +200 mV, three independent measurements

{"columns": ["COMPOUND", "1/τoff, s⁻¹"],
 "data": [
  ["Nc1nc2c(ncn2[C@@H]2O[C@H](COP(=O)(O)O)[C@@H](O)[C@H]2O)c(=O)[nH]1 [GMP, guanosine-5′-monophosphate]", 11.4],
  ["O=c1ccn([C@@H]2O[C@H](COP(=O)(O)O)[C@@H](O)[C@H]2O)c(=O)[nH]1 [UMP, uridine-5′-monophosphate]", 8.7],
  ["Nc1ccn([C@@H]2O[C@H](COP(=O)(O)O)[C@@H](O)[C@H]2O)c(=O)n1 [CMP, Cytidine-5′-monophosphate]", 20.6],
  ["Nc1ncnc2c1ncn2[C@@H]1O[C@H](COP(=O)(O)O)[C@@H](O)[C@H]1O [AMP, adenosine-5′-monophosphate]", 14.4]
]}
